Measured values drawn from patent US11459315B2 for this set.

molecular target: PRC2 containing wt EZH2 (Homo sapiens (Human)); assay: EZH2 residence time assay (100-fold dilution of pre-formed enzyme-inhibitor complex); format: biochemical
Sequence (Q15910 whole entry): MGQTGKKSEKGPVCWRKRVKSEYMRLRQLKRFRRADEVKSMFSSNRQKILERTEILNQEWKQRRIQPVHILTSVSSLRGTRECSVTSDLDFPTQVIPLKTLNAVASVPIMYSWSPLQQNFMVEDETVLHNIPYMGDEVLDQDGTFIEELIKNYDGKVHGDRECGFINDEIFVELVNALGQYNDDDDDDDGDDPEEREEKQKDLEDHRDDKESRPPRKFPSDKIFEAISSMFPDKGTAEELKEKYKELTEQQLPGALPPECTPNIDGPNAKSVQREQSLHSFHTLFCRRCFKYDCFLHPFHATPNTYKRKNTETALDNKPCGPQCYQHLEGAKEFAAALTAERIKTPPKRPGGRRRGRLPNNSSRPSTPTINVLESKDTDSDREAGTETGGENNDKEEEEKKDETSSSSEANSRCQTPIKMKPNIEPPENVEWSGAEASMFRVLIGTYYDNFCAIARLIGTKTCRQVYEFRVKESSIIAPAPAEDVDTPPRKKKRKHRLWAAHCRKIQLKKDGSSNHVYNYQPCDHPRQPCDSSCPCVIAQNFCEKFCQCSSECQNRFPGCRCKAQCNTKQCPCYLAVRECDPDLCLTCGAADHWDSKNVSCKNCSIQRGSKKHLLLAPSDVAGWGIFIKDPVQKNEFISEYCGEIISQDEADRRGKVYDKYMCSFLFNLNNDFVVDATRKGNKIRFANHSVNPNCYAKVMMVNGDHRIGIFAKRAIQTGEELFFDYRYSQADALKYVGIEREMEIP
Sequence (O75530 whole entry partner): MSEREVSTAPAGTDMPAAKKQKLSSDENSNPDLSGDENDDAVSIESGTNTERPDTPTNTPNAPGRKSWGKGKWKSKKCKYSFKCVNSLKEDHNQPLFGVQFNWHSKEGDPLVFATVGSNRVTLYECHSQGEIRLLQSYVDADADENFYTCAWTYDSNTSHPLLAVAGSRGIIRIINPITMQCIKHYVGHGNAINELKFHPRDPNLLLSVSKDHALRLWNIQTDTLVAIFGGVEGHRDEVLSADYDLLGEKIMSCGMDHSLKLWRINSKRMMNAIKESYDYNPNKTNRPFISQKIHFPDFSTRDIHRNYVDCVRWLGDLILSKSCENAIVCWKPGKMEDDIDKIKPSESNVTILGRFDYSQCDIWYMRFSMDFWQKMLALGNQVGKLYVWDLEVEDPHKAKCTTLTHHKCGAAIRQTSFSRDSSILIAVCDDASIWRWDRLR
Sequence (Q15022 whole entry partner): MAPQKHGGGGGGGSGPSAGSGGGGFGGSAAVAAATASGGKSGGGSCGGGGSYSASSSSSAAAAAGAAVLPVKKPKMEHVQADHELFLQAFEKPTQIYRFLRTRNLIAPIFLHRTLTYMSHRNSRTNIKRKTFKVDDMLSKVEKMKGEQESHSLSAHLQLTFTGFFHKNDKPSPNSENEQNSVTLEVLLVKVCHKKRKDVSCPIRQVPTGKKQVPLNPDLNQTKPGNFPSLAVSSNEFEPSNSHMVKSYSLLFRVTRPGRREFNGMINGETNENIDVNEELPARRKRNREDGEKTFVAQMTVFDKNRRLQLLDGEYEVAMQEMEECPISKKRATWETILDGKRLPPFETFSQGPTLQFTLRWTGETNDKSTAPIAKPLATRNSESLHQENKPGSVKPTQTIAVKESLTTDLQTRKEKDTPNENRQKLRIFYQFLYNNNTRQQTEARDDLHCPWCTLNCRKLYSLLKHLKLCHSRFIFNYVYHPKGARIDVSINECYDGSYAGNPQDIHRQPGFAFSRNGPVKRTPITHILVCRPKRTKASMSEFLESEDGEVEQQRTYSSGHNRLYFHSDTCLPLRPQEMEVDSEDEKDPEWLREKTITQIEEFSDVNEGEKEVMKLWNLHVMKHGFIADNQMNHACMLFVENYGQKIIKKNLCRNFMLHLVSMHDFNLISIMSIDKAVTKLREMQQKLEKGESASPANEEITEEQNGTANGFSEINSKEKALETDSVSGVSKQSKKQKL
Sequence (Q09028 whole entry partner): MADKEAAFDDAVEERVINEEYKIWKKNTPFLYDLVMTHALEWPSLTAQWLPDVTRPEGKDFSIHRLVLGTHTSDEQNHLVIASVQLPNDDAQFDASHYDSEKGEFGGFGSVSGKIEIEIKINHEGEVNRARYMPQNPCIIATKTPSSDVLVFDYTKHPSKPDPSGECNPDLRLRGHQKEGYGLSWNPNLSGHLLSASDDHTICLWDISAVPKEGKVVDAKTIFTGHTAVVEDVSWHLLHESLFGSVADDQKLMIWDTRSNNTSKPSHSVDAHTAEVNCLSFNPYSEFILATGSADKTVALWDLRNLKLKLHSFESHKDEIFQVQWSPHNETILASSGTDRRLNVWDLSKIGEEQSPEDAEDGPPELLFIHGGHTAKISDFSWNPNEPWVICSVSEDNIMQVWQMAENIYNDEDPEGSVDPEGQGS
Sequence (Q6ZN18 whole entry partner): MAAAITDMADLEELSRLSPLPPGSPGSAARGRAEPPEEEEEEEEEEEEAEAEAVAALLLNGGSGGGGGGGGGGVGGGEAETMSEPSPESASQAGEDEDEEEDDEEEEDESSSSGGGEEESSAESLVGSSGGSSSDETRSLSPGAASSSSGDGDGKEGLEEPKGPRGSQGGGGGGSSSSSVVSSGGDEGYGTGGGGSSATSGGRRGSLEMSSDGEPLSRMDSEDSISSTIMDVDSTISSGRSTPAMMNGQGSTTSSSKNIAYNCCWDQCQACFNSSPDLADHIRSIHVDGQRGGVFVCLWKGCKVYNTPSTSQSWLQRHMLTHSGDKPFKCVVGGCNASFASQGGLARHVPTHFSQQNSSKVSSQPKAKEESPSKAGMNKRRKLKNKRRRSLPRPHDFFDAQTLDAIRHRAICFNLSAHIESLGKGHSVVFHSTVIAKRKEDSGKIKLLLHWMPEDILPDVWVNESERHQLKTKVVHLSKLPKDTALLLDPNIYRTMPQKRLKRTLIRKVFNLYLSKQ
Measured metric: residence time

Here is how some compounds turned out for residence time.
[
  {
    "Compound": "COC1CN(C2CCC([C@@H](C)n3c(C)c(C(=O)NCc4c(C)cc(C)[nH]c4=O)c4ccccc43)CC2)C1 (single isomer, unassigned)",
    "residence time": "30 to 300 min"
  },
  {
    "Compound": "Cc1cc(C)c(CNC(=O)c2c(C)n([C@H](C)C3CCN(CC(F)(F)F)CC3)c3ccccc23)c(=O)[nH]1",
    "residence time": "< 30 min"
  },
  {
    "Compound": "COC1CN(C2CCC([C@@H](C)n3c(C)c(C(=O)NCc4c(SC5CC5)cc(C)[nH]c4=O)c4ccccc43)CC2)C1 (stereo partly drawn) [drawing 264]",
    "residence time": "300 to 2100 min"
  }
]

Hey, can you go through the list below and give me residence time for every item?
1. Cc1cc(SC2CCC2)c(CNC(=O)c2c(C)n([C@H](C)C3CCN(CC(F)(F)F)CC3)c3ccccc23)c(=O)[nH]1 [drawing 267]
2. CSc1cc(C)[nH]c(=O)c1CNC(=O)c1c(C)n([C@H](C)C2CCN(C3CC3)CC2)c2ncccc12 [drawing 256]

["30 to 300 min", "300 to 2100 min"]
